The reported measurements were obtained from the kinase profiling compilation of Christmann-Franck et al. (2016).

- TEST_SYSTEM: NEK4 (human) (UniProt P51957)
- Sequence (P51957 whole entry, looked up): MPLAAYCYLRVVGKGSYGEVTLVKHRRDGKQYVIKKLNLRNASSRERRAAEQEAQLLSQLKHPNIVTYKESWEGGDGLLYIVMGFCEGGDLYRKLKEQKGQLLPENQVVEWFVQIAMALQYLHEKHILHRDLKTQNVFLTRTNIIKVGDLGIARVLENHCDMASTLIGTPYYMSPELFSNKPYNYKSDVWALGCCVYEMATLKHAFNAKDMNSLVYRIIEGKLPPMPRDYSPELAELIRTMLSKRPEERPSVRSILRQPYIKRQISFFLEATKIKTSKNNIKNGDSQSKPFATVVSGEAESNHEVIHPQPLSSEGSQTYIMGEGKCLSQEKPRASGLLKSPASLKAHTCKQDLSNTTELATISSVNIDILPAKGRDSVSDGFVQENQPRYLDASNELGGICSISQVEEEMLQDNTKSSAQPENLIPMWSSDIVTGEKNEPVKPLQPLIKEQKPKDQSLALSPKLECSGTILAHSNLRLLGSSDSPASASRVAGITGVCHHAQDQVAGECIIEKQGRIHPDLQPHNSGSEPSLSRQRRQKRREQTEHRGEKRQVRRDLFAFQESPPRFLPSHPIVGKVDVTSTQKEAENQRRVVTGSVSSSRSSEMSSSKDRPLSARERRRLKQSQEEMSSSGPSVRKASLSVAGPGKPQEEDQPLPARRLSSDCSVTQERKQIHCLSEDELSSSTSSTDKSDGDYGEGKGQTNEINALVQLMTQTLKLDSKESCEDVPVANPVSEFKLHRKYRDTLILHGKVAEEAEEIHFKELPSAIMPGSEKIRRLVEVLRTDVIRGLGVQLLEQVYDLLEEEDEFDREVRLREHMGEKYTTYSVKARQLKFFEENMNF
- RUN_DESCRIPTION: KINOMEscan competition binding
- MEASUREMENT_CONDITIONS: compound 1.0 µM
EXPERIMENTAL_READOUT: kinase still bound, per cent of control (%)
// units = %; emit number, no label

kinase still bound, per cent of control measured on CN(C)C/C=C/C(=O)Nc1cccc(C(=O)Nc2ccc(Nc3nccc(/C(C#N)=C4\Nc5ccccc5S4)n3)cc2)c1 = 100

More entries:
// CN(C)C/C=C/C(=O)Nc1cccc(C(=O)Nc2ccc(Nc3nccc(-c4cccnc4)n3)cc2)c1 : kinase still bound, per cent of control value = 83

Note to self: kinase still bound, per cent of control recorded for CN(C)C/C=C/C(=O)Nc1cccc(C(=O)Nc2ccc(Nc3nccc(-c4c(-c5ccccc5)nn5ccccc45)n3)cc2)c1 was 100

Given item Cc1cc(NC(=O)c2cccc(NC(=O)/C=C/CN(C)C)c2)ccc1Nc1nccc(-c2cccnc2)n1 , the value recorded as its kinase still bound, per cent of control is 79
